target: T1, Human VSIG4-L-Fc (human); test: ligand competition ELISA (FJB), blocked ligand C3b
T1 construct: also called hVSIG4-L-Fc; hVSIG4-L
T1 sequence (chain, as listed by the source limits assumed): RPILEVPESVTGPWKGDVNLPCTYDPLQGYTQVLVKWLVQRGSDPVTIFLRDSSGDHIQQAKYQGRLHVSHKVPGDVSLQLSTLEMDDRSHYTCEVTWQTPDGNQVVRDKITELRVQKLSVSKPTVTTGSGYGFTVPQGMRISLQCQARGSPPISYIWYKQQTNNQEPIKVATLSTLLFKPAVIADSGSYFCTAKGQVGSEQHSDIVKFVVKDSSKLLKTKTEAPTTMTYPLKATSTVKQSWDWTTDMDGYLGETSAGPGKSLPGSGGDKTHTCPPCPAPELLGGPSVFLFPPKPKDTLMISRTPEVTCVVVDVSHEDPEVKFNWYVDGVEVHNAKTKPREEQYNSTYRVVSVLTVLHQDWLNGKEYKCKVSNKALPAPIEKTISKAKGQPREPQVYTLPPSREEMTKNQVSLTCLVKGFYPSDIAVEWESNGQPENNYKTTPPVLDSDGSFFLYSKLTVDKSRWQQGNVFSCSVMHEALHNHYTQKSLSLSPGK
// pIC50 lookup, one value per entry
// pIC50 is dimensionless: -log10 of concentration (M)

Below, 5 binders whose answers are already recorded.
BINDER	pIC50
14C05 mouse/human chimeric IgG4 (S228P) kappa (antibody, V domains shown) VH: EVMLVESGPELKKPGETVKISCKASGYTFTNYGMNWVKQAPGKGLKWMGSINTYTGEATYADDFKGRFAFSLETSANTAYLQIDNLKNEDTATYFCARGDYYGRGTWFAYWGQGTLVTVSA VL: ETTVTQSHKFMSTSVGDRVSITCKASQDVSTAVAWYQQKPGQSPKLLIYSASYRYPGVPDRFTGSGSGTDFTFTISSVQAEDLAVYYCQQDYSSPWTFGGGTKLEIKR	8.62
14D12 mouse/human chimeric IgG4 (S228P) kappa (antibody, V domains shown) VH: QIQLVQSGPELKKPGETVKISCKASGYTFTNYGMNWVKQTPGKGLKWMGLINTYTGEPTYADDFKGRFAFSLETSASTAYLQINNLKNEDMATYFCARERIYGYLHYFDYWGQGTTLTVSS VL: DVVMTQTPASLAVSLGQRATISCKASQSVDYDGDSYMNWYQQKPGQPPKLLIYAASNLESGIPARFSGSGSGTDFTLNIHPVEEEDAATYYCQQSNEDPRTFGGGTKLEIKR	9.10
12A12 mouse/human chimeric IgG4 (S228P) kappa (antibody, V domains shown) VH: QVQMKQSGAELAKPGASVKMSCKASGYTFTNYWMHWVKQRPGQGLEWIGYINPSTGYTDYNQNFKDRATLTADKSSSTAYMQLSSLTSEDSAVYYCIRGSDYYGRDYWGQGTTLTVSS VL: DIQMTQTTSSLSASLGDRVTISCRASQDISNYLNWYQQKPDGTLKLLIYYTSRLHSGVPSRFSGSGSGTDYSLTISNLEQEDIATYFCRQGNTLPWTFGGGTKLEIKR	9.05
15C04 mouse/human chimeric IgG4 (S228P) kappa (antibody, V domains shown) VH: QIQLQESGPSLVRPSQTLSLTCSVTGDSITSGYWNWIRKFPGDKLEYLGYISYSGFTYYNPSLKSRISITRDTSKNQYYLQLNSVTTEDTATYYCASSYYGSSLGFPYWGQGTLVTVSA VL: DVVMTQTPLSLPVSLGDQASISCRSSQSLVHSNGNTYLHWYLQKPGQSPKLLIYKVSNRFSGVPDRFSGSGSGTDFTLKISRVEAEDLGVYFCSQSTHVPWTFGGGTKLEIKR	7.71
15C03 mouse/human chimeric IgG4 (S228P) kappa (antibody, V domains shown) VH: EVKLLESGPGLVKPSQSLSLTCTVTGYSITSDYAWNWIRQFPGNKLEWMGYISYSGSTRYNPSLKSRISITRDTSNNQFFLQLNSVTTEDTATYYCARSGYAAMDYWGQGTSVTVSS VL: ENVLTQSPAIMSASPGEKVTMTCRASSSVSSSYLHWYQQKSGASPKLWIYSTSNLASGVPARFSGSGSGTSYSLTISSVEAEDAATYYCQQYSGYPLTFGSGTKLEIKR	8.62

## Task Answer with the recorded pIC50 of 16G02 mouse/human chimeric IgG4 (S228P) kappa (antibody, V domains shown) VH: QVQLQQSGAELMKPGASVKISCKATGYTFSSYWIEWVKQRPGHGLEWIGEILPGSSTTNYNEKFKGKATFTADTSSNTAYMQLSSLTSEDSAVYYCAREDHFITTARYAMDYWGQGTSVTVSS VL: DIVLTQSPASLAMSVGQKVTMSCKSSQSLLNSSNQKNYLAWYQQKPGQSPKLLLYFASTRESGVPDRFIGSGSGTDFTLTISSVQAEDLADYFCQQHYSNPLTFGAGTKLELKR only.
## Result 8.96

## Task Supply recorded pIC50 for 16E10 mouse/human chimeric IgG4 (S228P) kappa (antibody, V domains shown) VH: QVQLQQSGAELVRPGTSVKISCKASGYTFTNYWLGWVKQRPGHGLEWIGDIYPGGGYTNYNEKFKGKATLTADTSSSTAYMQLSSLTSEDSAVYFCAKFYYYGSSYYFDSWGQGTTLTVSS VL: DIVLTQSPSSLSVSAGEKVTLSCKSSQSLLNSGNQENYLAWYQQKPGQPPKLLIYGASTRESGVPDRFTGSGSGTDFTLTISSVQAEDLAVYYCQNDHSYPLTFGAGTKLELKR here.
## Result 9.15

## Task Return pIC50 for the following binder: 12A08 mouse/human chimeric IgG4 (S228P) kappa (antibody, V domains shown) VH: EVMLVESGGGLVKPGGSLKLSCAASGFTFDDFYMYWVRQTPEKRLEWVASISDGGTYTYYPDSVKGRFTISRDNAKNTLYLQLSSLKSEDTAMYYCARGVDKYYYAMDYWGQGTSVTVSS VL: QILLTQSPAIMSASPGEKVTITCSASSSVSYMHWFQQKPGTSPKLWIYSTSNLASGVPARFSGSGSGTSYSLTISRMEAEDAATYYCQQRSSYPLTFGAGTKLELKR
## Result 9.00
